- Test system: Vibrio aquamarinus DSM 26054
- Run description: Biofilm formation, crystal violet assay
- Format: cell-based
- Cond: V. aquamarinus DSM 26054; 1 × 10^−5 M; control = 100%
# maps each entry to its Biofilm Formation
Give the quantity in %, number only.

Compound	Biofilm Formation [%]
O=[N+]([O-])c1c(Cl)cc2c(no[n+]2[O-])c1Nc1cccc(O)c1 [compound 4]	96.57
O=C(Nc1ccc(Br)cc1)N1CCCC1c1ccc(Nc2c([N+](=O)[O-])c(Cl)cc3c2no[n+]3[O-])cc1O (centres unmarked) [6d]	63.12

Now consider a different compound.
Q: What value of measured Biofilm Formation is listed for O=C(Nc1ccccc1)N1CCCC1c1ccc(Nc2c([N+](=O)[O-])c(Cl)cc3c2no[n+]3[O-])cc1O (centres unmarked) [6b] ?
Ans: 89.12
